- SYSTEM: human Cystic Fibrosis Transmembrane Conductance Regulator (CFTR) harboring the ΔF508 mutation (Homo sapiens, UniProt P13569, DEL508-508)
- Sequence (P13569 with tags, fused parts or gaps DEL508-508): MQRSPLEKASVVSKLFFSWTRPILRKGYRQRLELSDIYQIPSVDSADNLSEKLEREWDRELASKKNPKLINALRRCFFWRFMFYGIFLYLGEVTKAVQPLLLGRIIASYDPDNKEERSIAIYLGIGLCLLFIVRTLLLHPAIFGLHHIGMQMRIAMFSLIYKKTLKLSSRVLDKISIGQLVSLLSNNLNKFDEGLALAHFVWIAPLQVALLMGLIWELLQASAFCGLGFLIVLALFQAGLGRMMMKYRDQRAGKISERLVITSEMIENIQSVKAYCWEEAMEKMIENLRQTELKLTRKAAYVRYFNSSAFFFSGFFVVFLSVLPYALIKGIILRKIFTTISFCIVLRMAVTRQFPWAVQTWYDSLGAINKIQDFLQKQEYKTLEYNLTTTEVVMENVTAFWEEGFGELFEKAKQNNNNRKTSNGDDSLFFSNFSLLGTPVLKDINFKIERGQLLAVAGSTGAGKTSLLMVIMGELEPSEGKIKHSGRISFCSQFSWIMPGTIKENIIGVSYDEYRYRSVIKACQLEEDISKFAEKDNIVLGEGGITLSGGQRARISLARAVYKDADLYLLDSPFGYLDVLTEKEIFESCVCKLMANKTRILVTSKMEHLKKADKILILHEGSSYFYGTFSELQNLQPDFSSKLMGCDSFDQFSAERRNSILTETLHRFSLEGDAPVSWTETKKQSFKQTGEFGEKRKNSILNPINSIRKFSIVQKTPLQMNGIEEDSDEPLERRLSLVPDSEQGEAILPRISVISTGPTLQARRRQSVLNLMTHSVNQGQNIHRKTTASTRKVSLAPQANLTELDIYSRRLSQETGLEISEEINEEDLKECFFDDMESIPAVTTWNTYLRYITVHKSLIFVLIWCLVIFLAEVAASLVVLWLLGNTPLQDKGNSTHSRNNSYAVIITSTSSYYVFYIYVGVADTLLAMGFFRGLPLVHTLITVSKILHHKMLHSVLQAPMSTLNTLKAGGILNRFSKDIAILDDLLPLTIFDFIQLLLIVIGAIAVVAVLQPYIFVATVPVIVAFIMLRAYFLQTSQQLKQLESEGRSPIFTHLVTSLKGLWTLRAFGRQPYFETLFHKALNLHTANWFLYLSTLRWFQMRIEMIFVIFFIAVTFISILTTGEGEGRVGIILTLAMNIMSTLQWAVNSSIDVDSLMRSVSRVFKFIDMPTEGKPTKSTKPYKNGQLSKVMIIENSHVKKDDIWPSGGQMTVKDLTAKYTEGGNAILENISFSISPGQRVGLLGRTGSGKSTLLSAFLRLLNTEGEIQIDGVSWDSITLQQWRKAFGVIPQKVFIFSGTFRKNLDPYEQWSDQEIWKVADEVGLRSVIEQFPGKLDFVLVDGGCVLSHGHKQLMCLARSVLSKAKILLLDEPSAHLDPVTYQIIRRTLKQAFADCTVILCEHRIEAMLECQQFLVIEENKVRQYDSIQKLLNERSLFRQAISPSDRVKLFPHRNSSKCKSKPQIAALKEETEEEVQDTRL
- ASSAY_PROCEDURE: H441 cell ΔF508-CFTR-HRP cell surface assay (Emax and EC50)
pEC50: −log10 of the molar value.
MEASURED_ATTRIBUTE: pEC50

Consider the reported pEC50 for these compounds:
>>> df
                                   compound  measured_attribute  value_observed
0  O=C(N[C@@H](Cc1ccc(C(F)(F)F)cc1)C(=O)O)c1ccc2cc(F)ccc2c1OCc1ccc(C(F)(F)F)cc1 [Example 197]               pEC50            4.94
1  CC(C)(C)[C@H](NC(=O)c1ccc2ccc(Cl)cc2c1OCc1ccc(C(F)(F)F)cc1)C(=O)O [Example 286]               pEC50            7.00

[I] CC(C)(C)[C@@H](NC(=O)c1ccc2ccc(C(F)(F)F)cc2c1OCc1ccc(OC(F)(F)F)cc1)C(=O)O [Example 287]
[II] CC1(C(NC(=O)c2ccc3ccccc3c2OCc2ccc(S(=O)(=O)C(F)(F)F)cc2)C(=O)O)CCCCC1 (stereo not shown) [Example 77]
Input line: Please indicate which has the smaller reported pEC50: I , or II . State your choice using its label.
Output line: II
